test.system: c-Met kinase (recombinant c-Met) (Homo sapiens, UniProt P08581)
Construct: 0.27 nM recombinant c-Met
Sequence (P08581 25-1390): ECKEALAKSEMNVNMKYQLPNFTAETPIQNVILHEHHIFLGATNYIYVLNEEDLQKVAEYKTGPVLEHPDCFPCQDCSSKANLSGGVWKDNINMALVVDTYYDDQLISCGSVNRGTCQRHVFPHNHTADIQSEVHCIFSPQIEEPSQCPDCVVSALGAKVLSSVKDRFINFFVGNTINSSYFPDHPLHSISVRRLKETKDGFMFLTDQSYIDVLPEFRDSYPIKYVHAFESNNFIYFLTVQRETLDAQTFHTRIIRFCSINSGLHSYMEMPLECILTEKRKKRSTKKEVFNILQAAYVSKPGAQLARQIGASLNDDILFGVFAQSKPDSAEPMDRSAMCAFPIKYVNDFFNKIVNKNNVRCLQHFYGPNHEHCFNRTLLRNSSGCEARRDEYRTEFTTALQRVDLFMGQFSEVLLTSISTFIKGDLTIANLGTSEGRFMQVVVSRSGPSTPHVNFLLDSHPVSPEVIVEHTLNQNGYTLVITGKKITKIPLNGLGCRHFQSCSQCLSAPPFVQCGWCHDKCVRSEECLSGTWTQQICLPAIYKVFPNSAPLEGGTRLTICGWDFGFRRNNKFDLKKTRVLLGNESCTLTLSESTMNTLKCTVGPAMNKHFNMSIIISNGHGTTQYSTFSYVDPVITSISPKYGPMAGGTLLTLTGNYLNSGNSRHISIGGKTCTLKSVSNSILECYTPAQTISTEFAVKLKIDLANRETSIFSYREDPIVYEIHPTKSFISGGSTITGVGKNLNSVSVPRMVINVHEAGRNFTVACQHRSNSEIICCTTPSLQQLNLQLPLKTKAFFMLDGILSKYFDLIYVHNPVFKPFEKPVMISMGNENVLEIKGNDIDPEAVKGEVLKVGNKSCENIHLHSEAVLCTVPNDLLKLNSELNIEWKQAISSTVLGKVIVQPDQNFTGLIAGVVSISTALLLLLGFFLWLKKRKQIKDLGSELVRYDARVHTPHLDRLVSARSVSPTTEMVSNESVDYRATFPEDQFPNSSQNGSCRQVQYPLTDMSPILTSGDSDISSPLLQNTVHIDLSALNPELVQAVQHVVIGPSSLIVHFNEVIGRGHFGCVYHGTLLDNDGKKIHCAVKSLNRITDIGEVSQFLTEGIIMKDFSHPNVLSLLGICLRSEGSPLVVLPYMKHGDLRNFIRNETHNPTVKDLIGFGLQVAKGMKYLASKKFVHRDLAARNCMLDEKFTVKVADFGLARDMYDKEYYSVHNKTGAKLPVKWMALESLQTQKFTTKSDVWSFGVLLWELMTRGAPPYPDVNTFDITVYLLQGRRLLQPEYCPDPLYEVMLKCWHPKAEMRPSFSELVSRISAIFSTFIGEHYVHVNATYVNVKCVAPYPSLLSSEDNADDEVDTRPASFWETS
procedure.summary: In vitro kinase assay I (homogeneous time-resolved fluorescence tyrosine kinase assay)
parameter: IC50

Solved cases (3 shown):
INSERT INTO measurements (molecule, result) VALUES
  ('CCCOC(=O)Nc1cccc(Cc2nn(-c3cnn(CCO)c3)ccc2=O)c1', '< 100 nM'),
  ('Cn1cc(-n2ccc(=O)c(Cc3cccc(-c4ncc(-c5cc[nH]n5)cn4)c3)n2)cn1', '< 100 nM'),
  ('CCn1cc(-n2ccc(=O)c(C(C)c3cccc(-c4ncc(-c5cnn(C)c5)cn4)c3)n2)cn1 (single isomer, unassigned) [Example 235]', '< 100 nM');

Please find the next molecule below.
Query block: # IC50 lookup, item COCc1cnc(-c2cccc(Cc3nn(-c4cnn(C)c4)ccc3=O)c2)nc1
Result block: < 100 nM

----------
Reported IC50 by item:
test.system: c-Met kinase (recombinant c-Met) (Homo sapiens, UniProt P08581)
Construct: 0.27 nM recombinant c-Met
procedure.summary: In vitro kinase assay I (homogeneous time-resolved fluorescence tyrosine kinase assay)

Solved cases (8 shown):
INSERT INTO measurements (compound, test_system, parameter, result) VALUES
  ('CCOCCOc1cnc(-c2cccc(Cc3nn(-c4ccc(F)c(F)c4)ccc3=O)c2)nc1', 'c-Met kinase (recombinant c-Met) (Homo sapiens, UniProt P08581)', 'IC50', '< 100 nM'),
  ('N#Cc1cc(F)cc(-n2ccc(=O)c(Cc3cccc(NC(=O)OCC4CCOC4)c3)n2)c1 (racemic)', 'c-Met kinase (recombinant c-Met) (Homo sapiens, UniProt P08581)', 'IC50', '< 100 nM'),
  ('CCNc1cnc(-c2cccc(Cc3nn(-c4cnn(C)c4)ccc3=O)c2)nc1', 'c-Met kinase (recombinant c-Met) (Homo sapiens, UniProt P08581)', 'IC50', '< 100 nM'),
  ('CCOc1cnc2ccc(Cc3nn(-c4cnn(C)c4)ccc3=O)cc2c1', 'c-Met kinase (recombinant c-Met) (Homo sapiens, UniProt P08581)', 'IC50', '100 to 1000 nM'),
  ('O=c1ccn(-c2cc(F)cc(F)c2)nc1Cc1cccc(-c2ncc(OC3COC3)cn2)c1', 'c-Met kinase (recombinant c-Met) (Homo sapiens, UniProt P08581)', 'IC50', '< 100 nM'),
  ('N#Cc1ccc(-n2ccc(=O)c(Cc3cccc(NC(=O)OCC4CCOC4)c3)n2)cc1 (racemic)', 'c-Met kinase (recombinant c-Met) (Homo sapiens, UniProt P08581)', 'IC50', '< 100 nM'),
  ('CCOC(=O)Nc1cccc(Cc2nn(-c3ccn(C)n3)ccc2=O)c1', 'c-Met kinase (recombinant c-Met) (Homo sapiens, UniProt P08581)', 'IC50', '100 to 1000 nM'),
  ('Cn1cc(-n2ccc(=O)c(Cc3cccc(-c4ncn(CC5(C)COC5)n4)c3)n2)cn1', 'c-Met kinase (recombinant c-Met) (Homo sapiens, UniProt P08581)', 'IC50', '100 to 1000 nM');

Query block: # IC50 lookup, item Cn1cc(-n2ccc(=O)c(Cc3cccc(-c4cnccn4)c3)n2)cn1
Result block: 1000 to 3000 nM

Query block: # IC50 lookup, item CCCN(C)c1cnc(-c2cccc(Cc3nn(-c4cnn(C)c4)ccc3=O)c2)nc1
Result block: < 100 nM
